Target: HLA B*5301 (Homo sapiens, UniProt P01889, A329T/A93T/A95T/C349S/D201E/D98Y/E176V/E187L/E204Q/E69T/G107R/I218V/K202T/L105A/L119I/N104I/Q94N/R106L/R155S/R180L/S101N/S121R/S35A/S48A/T118I/V127L/V306I/V36M/Y140S/Y91F)
Type: binding
endpoint-label: Normalized average relative binding affinity(ARB)

{"seq-string": "XXXXXXXLX [3064.0150]", "experimental-result": 0.42}
{"seq-string": "XXXXXLXXX [3064.0110]", "experimental-result": 0.18}
{"seq-string": "XXXXIXXXX [3064.0088]", "experimental-result": 0.30}
{"seq-string": "XXXXPXXXX [3064.0093]", "experimental-result": 0.14}
{"seq-string": "XXXXXXXRX [3064.0155]", "experimental-result": 0.46}
{"seq-string": "XXXXXXXHX [3064.0147]", "experimental-result": 0.74}
{"seq-string": "XXXEXXXXX [3064.0064]", "experimental-result": 0.24}
{"seq-string": "XXXXSXXXX [3064.0096]", "experimental-result": 0.16}
{"seq-string": "XXXXXXRXX [3064.0135]", "experimental-result": 0.25}
{"seq-string": "XXXXXXQXX [3064.0134]", "experimental-result": 1.0}
{"seq-string": "XXXXXEXXX [3064.0104]", "experimental-result": 0.21}
{"seq-string": "XXXXXDXXX [3064.0103]", "experimental-result": 0.15}
{"seq-string": "XXXXYXXXX [3064.0100]", "experimental-result": 0.087}
{"seq-string": "XXXXXXEXX [3064.0124]", "experimental-result": 0.29}
{"seq-string": "XXXXRXXXX [3064.0095]", "experimental-result": 0.11}

###

Listing of recorded Normalized average relative binding affinity(ARB) by entry.
Target: HLA B*5802 (Homo sapiens, UniProt P01889, A329T/C349S/D201E/D98Y/E176V/E187L/E204Q/E69T/G107R/I218V/I90N/K202T/L105A/N104I/N87E/Q89R/Q94S/R106L/R155S/R180L/R86G/S101N/S121W/S35A/S48A/V127L/V306I/V36M/Y140S/Y91M)
Assay type: binding
endpoint-label: Normalized average relative binding affinity(ARB)

{"seq-string": "XXXXXDXXX [3064.0103]", "experimental-result": 0.15}
{"seq-string": "XXXXXXAXX [3064.0121]", "experimental-result": 0.032}
{"seq-string": "XXXXXXEXX [3064.0124]", "experimental-result": 0.092}
{"seq-string": "XXXTXXXXX [3064.0077]", "experimental-result": 0.74}
{"seq-string": "XXXXXXDXX [3064.0123]", "experimental-result": 0.022}
{"seq-string": "XXXXXXXDX [3064.0143]", "experimental-result": 0.087}
{"seq-string": "XXXXXXQXX [3064.0134]", "experimental-result": 0.22}
{"seq-string": "XXXXTXXXX [3064.0097]", "experimental-result": 0.16}
{"seq-string": "XXXXXXCXX [3064.0122]", "experimental-result": 0.024}
{"seq-string": "XXXWXXXXX [3064.0079]", "experimental-result": 0.72}
{"seq-string": "XXXGXXXXX [3064.0066]", "experimental-result": 0.15}
{"seq-string": "XXXXXPXXX [3064.0113]", "experimental-result": 0.39}
{"seq-string": "XXXXXXXIX [3064.0148]", "experimental-result": 0.41}
{"seq-string": "XXXXIXXXX [3064.0088]", "experimental-result": 0.79}
{"seq-string": "XXXXXXSXX [3064.0136]", "experimental-result": 0.044}
{"seq-string": "XXXXNXXXX [3064.0092]", "experimental-result": 0.31}

###

Molecular target: HLA B*1501 (Homo sapiens, UniProt P01889, A329T/A93T/A95T/C349S/D201E/D98Y/E187L/E204Q/E69M/E70A/K202T/N87E/Q94N/R155S/R180W/S121R/S35A/S48A/V306I/V36M/Y140S/Y91S)
Experiment: biochemical
Where a SMILES comes first, the peptide text is derived from it.
endpoint-label: IC50 (nM)

{"molecule": "CC[C@H](C)[C@H](NC(=O)[C@H](Cc1c[nH]cn1)NC(=O)[C@H](CC(=O)O)NC(=O)[C@H](Cc1c[nH]cn1)NC(=O)[C@H](CO)NC(=O)[C@@H](N)Cc1ccccc1)C(=O)NCC(=O)N[C@@H](Cc1c[nH]cn1)C(=O)NCC(=O)O [3102.0897] (H-FSHDHIGHG-OH)", "endpoint-label": "IC50", "experimental-result": 32}
{"molecule": "CC[C@H](C)[C@H](NC(=O)[C@H](Cc1ccccc1)NC(=O)[C@H](CCCNC(=N)N)NC(=O)[C@H](CCC(=O)O)NC(=O)[C@@H](NC(=O)[C@H](CCSC)NC(=O)[C@@H](N)Cc1ccc(O)cc1)[C@@H](C)CC)C(=O)N[C@@H](CO)C(=O)N[C@@H](Cc1ccccc1)C(=O)O [3102.1085] (H-YMIERFISF-OH)", "endpoint-label": "IC50", "experimental-result": 0.11}

###

Target: HLA A*3001 (Homo sapiens, UniProt P04439, D140H/D185E/E176W/F33S/G80R/H175R/K168Q/R138E/R41S)
Test: biochemical
Format: binding
endpoint-label: Normalized average relative binding affinity (ARB), HLA A*3001

{"seq-string": "XMXXXXXXX [3064.0031]", "experimental-result": 0.70}
{"seq-string": "XXVXXXXXX [3064.0058]", "experimental-result": 0.0059}
{"seq-string": "FXXXXXXXX [3064.0005]", "experimental-result": 0.035}
{"seq-string": "YXXXXXXXX [3064.0020]", "experimental-result": 0.064}
{"seq-string": "XYXXXXXXX [3064.0040]", "experimental-result": 0.46}
{"seq-string": "XXNXXXXXX [3064.0052]", "experimental-result": 0.017}
{"seq-string": "XXFXXXXXX [3064.0045]", "experimental-result": 0.041}
{"seq-string": "IXXXXXXXX [3064.0008]", "experimental-result": 0.11}
{"seq-string": "XXTXXXXXX [3064.0057]", "experimental-result": 0.0040}
{"seq-string": "XGXXXXXXX [3064.0026]", "experimental-result": 0.22}
{"seq-string": "XXGXXXXXX [3064.0046]", "experimental-result": 0.0022}
{"seq-string": "PXXXXXXXX [3064.0013]", "experimental-result": 0.0059}
{"seq-string": "XSXXXXXXX [3064.0036]", "experimental-result": 0.38}
{"seq-string": "RXXXXXXXX [3064.0015]", "experimental-result": 1.0}
{"seq-string": "XDXXXXXXX [3064.0023]", "experimental-result": 0.012}
{"seq-string": "XXIXXXXXX [3064.0048]", "experimental-result": 0.020}

###

Listing of recorded pIC50 by entry.
Molecular target: HLA A*3001 (Homo sapiens, UniProt P04439, D140H/D185E/E176W/F33S/G80R/H175R/K168Q/R138E/R41S)
Test: biochemical
pIC50: −log10 of the molar value. Where a SMILES comes first, the peptide text is derived from it.
endpoint-label: pIC50

{"molecule": "CC(C)[C@H](NC(=O)[C@H](C)NC(=O)[C@H](Cc1ccccc1)NC(=O)[C@H](CO)NC(=O)[C@H](CS)NC(=O)[C@H](CCCNC(=N)N)NC(=O)[C@H](Cc1ccc(O)cc1)NC(=O)[C@@H](N)CCCNC(=N)N)C(=O)N[C@@H](C)C(=O)O [3102.0102] (H-RYRCSFAVA-OH)", "endpoint-label": "pIC50", "experimental-result": 11.42}
{"molecule": "CC[C@H](C)[C@H](NC(=O)[C@H](CC(C)C)NC(=O)[C@H](CO)NC(=O)[C@@H](NC(=O)[C@H](CCCNC(=N)N)NC(=O)[C@@H](NC(=O)[C@@H](N)CCCNC(=N)N)C(C)C)[C@@H](C)CC)C(=O)N[C@@H](Cc1ccc(O)cc1)C(=O)N[C@@H](CC(C)C)C(=O)O [3102.0249] (H-RVRISLIYL-OH)", "endpoint-label": "pIC50", "experimental-result": 10.04}
{"molecule": "CC[C@H](C)[C@H](NC(=O)[C@H](CC(N)=O)NC(=O)CNC(=O)[C@H](CC(N)=O)NC(=O)[C@H](CCCCN)NC(=O)[C@@H](NC(=O)[C@H](C)N)[C@@H](C)O)C(=O)N[C@@H](Cc1ccccc1)C(=O)N[C@H](C(=O)O)C(C)C [3102.0093] (H-ATKNGNIFV-OH)", "endpoint-label": "pIC50", "experimental-result": 8.41}
{"molecule": "CC(C)C[C@H](NC(=O)[C@H](CCCCN)NC(=O)[C@H](CCCCN)NC(=O)[C@H](Cc1ccc(O)cc1)NC(=O)[C@H](CC(C)C)NC(=O)[C@@H](NC(=O)[C@@H](N)Cc1ccc(O)cc1)[C@@H](C)O)C(=O)N[C@@H](CO)C(=O)N[C@@H](Cc1ccccc1)C(=O)O [3102.0333] (H-YTLYKKLSF-OH)", "endpoint-label": "pIC50", "experimental-result": 7.64}
{"molecule": "CC(C)[C@H](NC(=O)[C@H](CCC(N)=O)NC(=O)[C@@H](NC(=O)[C@H](CCCNC(=N)N)NC(=O)[C@H](CCC(=O)O)NC(=O)[C@@H](NC(=O)[C@H](CCCNC(=N)N)NC(=O)[C@H](CO)NC(=O)[C@@H](N)CCCCN)C(C)C)C(C)C)C(=O)O [3102.0075] (H-KSRVERVQV-OH)", "endpoint-label": "pIC50", "experimental-result": 7.96}
{"molecule": "CC(C)C[C@H](NC(=O)[C@H](C)NC(=O)[C@@H](N)CO)C(=O)N[C@@H](Cc1ccc(O)cc1)C(=O)N[C@@H](CO)C(=O)N[C@@H](Cc1ccc(O)cc1)C(=O)N[C@@H](C)C(=O)N[C@@H](CO)C(=O)N[C@@H](C)C(=O)O [3102.0177] (H-SALYSYASA-OH)", "endpoint-label": "pIC50", "experimental-result": 7.43}
{"molecule": "CC[C@H](C)[C@H](NC(=O)[C@H](CCCCN)NC(=O)[C@H](CC(N)=O)NC(=O)[C@H](CC(N)=O)NC(=O)[C@H](CCCCN)NC(=O)[C@@H](NC(=O)[C@@H](N)CCSC)C(C)C)C(=O)N[C@@H](CCC(N)=O)C(=O)N[C@@H](CCCCN)C(=O)O [3102.0137] (H-MVKNNKIQK-OH)", "endpoint-label": "pIC50", "experimental-result": 7.92}
